List of half-life values.
# EXPERIMENTAL_PROTOCOL: Metabolic stability in rat liver microsomes assessed as half life by LC-MS analysis
# Assay type: ADME, Microsome
Write down the numeric answer in min and omit the unit.

# MOLECULE, half-life [min]
measured = [
    ("CC1(C)CCN(Cc2ccc(N3CC(=O)NC4(CCN(c5nc(Cl)nc6[nH]ccc56)CC4)C3)cc2)CC1", 32),
]

Here is another compound to look at.
Query CNc1cc(N2CC3(CN(c4ccc(CN5CCC(C)(C)CC5)cc4)CC(=O)N3)C2)ncn1 yields half-life of 70
